- target.under.test: T1, Mouse IL-18Rα ectodomain (amino acids 19-329), biotinylated (mouse, UniProt Q61098 19-329, biotin on the AviTag (BirA ligase))
- T1 construct: range 19-329; Secreted from Expi293 cells (H7 signal peptide removed); also called mIL-18Rα; mIL18Ra
- T1 sequence: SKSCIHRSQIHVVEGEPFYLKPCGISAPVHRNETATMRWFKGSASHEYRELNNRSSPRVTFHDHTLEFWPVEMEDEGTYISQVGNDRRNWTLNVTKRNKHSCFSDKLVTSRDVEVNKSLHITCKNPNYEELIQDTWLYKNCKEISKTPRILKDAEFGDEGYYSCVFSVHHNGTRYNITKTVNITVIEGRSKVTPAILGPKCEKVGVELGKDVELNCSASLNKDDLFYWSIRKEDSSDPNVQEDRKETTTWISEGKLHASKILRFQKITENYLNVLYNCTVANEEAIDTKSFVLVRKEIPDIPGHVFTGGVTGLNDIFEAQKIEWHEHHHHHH
- experimental.protocol: on-yeast binding isotherm (flow cytometry)
property.name: Kd
Answer format: value, then unit.

Query: // Kd lookup, key: Mouse Interleukin-18 (mature form), wild type (ligand, also called mIL-18 WT; WT mIL-18) NFGRLHCTTAVIRNINDQVLFVDKRQPVFEDMTDIDQSASEPQTRLIIYMYKDSEVRGLAVTLSVKDSKMSTLSCKNKIISFEEMDPPENIDDIQSDLIFFQKRVPGHNKMEFESSLYEGHFLACQKEDDAFKLILKKKDENGDKSVMFTLTNLHQS
Result: 0.0113 µM

Query: // Kd lookup, key: SEQ ID NO: 62 (murine DR-IL-18 variant mC1) (ligand, Engineered variant) NFGRLHCTTAVIRNINDQVLFVDKRQPVFEDMTDIDQSASEPQTRLIIYAYVDRRLRGKAVTLSVKDSKMSTLSCKNKIISFEEMDPPENIDDIQSDLIFFQKKVPGHNKMEFESSLYEGHFLACQKEDDAFKLILKKKDENGDKSVMFTLTNLHQS
Result: 0.043 µM

Query: // Kd lookup, key: SEQ ID NO: 70 (murine DR-IL-18 variant mA7) (ligand, Engineered variant) YFGRLHCTTAVIRNINDQVLFVDKRQPVFEDMTDIDQSASEPQTRLIIYAYGDNRVRGKAVTLSVKDSKMSTLSCKNKIISFEEMDPPENIDDIQSDLIFFQKRVPGHNKMEFESSLYEGHFLACQKEDDAFKLILKKKDENGDKSVMFTLTNLHQS
Result: 0.0135 µM
